- ASSAY SYSTEM: beta-klotho
- TEST SUMMARY: cell-based or functional assay
// EC50, ELK-luciferase assay lookup, one value per entry
The reply should be a number in nM, with the unit left off.

BINDER	EC50, ELK-luciferase assay / nM
dually PEGylated FGF21 mutant K69C, H125C (ligand, 20 kDa methoxy-PEG-maleimide on Cys 69 and on Cys 125) MHPIPDSSPLLQFGGQVRQRYLYTDDAQQTEAHLEIREDGTVGGAADQSPESLLQLKALKPGVIQILGVCTSRFLCQRPDGALYGSLHFDPEACSFRELLLEDGYNVYQSEAHGLPLHLPGNKSPCRDPAPRGPARFLPLPGLPPAPPEPPGILAPQPPDVGSSDPLSMVGPSQGRSPSYAS	164

Identify the reported EC50, ELK-luciferase assay for the following entry. dually PEGylated FGF21 mutant K69C, E91C (ligand, 20 kDa methoxy-PEG-maleimide on Cys 69 and on Cys 91) MHPIPDSSPLLQFGGQVRQRYLYTDDAQQTEAHLEIREDGTVGGAADQSPESLLQLKALKPGVIQILGVCTSRFLCQRPDGALYGSLHFDPCACSFRELLLEDGYNVYQSEAHGLPLHLPGNKSPHRDPAPRGPARFLPLPGLPPAPPEPPGILAPQPPDVGSSDPLSMVGPSQGRSPSYAS
69

Identify the reported EC50, ELK-luciferase assay for the following entry. dually PEGylated FGF21 mutant R77C, E91C (ligand, 20 kDa methoxy-PEG-maleimide on Cys 77 and on Cys 91) MHPIPDSSPLLQFGGQVRQRYLYTDDAQQTEAHLEIREDGTVGGAADQSPESLLQLKALKPGVIQILGVKTSRFLCQCPDGALYGSLHFDPCACSFRELLLEDGYNVYQSEAHGLPLHLPGNKSPHRDPAPRGPARFLPLPGLPPAPPEPPGILAPQPPDVGSSDPLSMVGPSQGRSPSYAS
26
